Origin of measurements: patent US20030186943A1

biological target: cAMP phosphodiesterase 3 from human platelets (Homo sapiens); construct: from tissue; host or cells: human platelets, cytoplasmic extract; assay: Inhibition of cAMP phosphodiesterase 3 from human platelets; format: biochemical; conditions: human platelets; read-out: IC50 PDE 3
Sequence (Q14432 whole entry): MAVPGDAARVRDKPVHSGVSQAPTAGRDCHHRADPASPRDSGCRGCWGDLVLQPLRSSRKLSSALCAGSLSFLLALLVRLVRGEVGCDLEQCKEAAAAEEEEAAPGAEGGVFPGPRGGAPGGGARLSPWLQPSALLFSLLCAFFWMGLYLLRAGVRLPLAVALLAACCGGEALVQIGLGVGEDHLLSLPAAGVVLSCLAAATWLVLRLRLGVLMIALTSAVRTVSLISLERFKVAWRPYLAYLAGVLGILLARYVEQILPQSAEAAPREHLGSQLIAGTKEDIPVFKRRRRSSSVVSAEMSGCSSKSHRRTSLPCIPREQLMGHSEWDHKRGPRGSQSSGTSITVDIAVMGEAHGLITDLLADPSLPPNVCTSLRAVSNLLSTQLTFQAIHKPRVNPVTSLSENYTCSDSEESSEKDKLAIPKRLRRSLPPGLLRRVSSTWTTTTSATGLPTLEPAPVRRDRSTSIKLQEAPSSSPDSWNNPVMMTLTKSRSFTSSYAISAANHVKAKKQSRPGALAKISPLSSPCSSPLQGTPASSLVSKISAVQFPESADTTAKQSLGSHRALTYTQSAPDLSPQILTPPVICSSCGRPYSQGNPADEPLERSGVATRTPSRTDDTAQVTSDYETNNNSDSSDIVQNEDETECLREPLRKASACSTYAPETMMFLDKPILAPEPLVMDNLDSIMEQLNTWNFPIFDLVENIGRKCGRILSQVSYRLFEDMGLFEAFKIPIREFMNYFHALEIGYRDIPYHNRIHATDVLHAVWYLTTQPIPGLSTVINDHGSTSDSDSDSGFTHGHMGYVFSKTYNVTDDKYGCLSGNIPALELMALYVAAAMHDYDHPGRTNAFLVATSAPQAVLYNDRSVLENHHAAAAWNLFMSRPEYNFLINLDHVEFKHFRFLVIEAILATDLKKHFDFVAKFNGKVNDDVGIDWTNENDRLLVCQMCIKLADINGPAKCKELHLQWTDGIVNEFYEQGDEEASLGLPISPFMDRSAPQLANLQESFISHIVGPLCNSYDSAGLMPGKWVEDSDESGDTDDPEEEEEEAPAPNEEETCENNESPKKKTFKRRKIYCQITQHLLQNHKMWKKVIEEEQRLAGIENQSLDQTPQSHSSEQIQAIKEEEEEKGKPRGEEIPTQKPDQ

# Compound, Assayed Target, IC50 (µM)
rows = [
    ("COc1cc(C[C@@H]2CC(c3ccc(OC)c(OC)c3)COC2=O)ccc1O (mixture of isomers) [Compound 12]", "cAMP phosphodiesterase 3 from human platelets (Homo sapiens)", 45),
]

----------
test system: High Affinity Rolipram Binding Site of PDE4 in Mouse Brain; test: Displacement of [3H]-rolipram from its high affinity binding site (HARBS); details: ratio of IC50 for PDE4 catalytic activity to concentration displacing 50% of rolipram from HARBS
Value Kind: PDE4:HARBS

# Compound, Assayed Target, Endpoint Value
data = [
    ("COc1ccc([C@H]2COC(=O)C(Cc3cccc([N+](=O)[O-])c3)C2)cc1OC1CCCC1 (stereo partly drawn)", "High Affinity Rolipram Binding Site of PDE4 in Mouse Brain", "<1"),
    ("COc1cc(CC2CC(c3ccc(OC)c(OC)c3)COC2=O)ccc1O (stereo not drawn)", "High Affinity Rolipram Binding Site of PDE4 in Mouse Brain", "<1"),
    ("CCCOc1cc(C2CCC(=O)OC2)ccc1OC (stereo not drawn)", "High Affinity Rolipram Binding Site of PDE4 in Mouse Brain", ">1"),
    ("COc1cc(CC2C[C@@H](c3ccc(OC)c(OC4CCCC4)c3)COC2=O)ccc1OCc1ccccc1 (stereo partly drawn)", "High Affinity Rolipram Binding Site of PDE4 in Mouse Brain", "<1"),
    ("COc1ccc([C@@H]2CCC(=O)OC2)cc1OC(C)C", "High Affinity Rolipram Binding Site of PDE4 in Mouse Brain", "<1"),
    ("COc1ccc(CC2C[C@@H](c3ccc(OC)c(OC)c3)COC2=O)cc1 (stereo partly drawn)", "High Affinity Rolipram Binding Site of PDE4 in Mouse Brain", "<1"),
    ("COc1ccc([C@@H]2CCC(=O)OC2)cc1OC", "High Affinity Rolipram Binding Site of PDE4 in Mouse Brain", "<1"),
    ("COc1ccc([C@@H]2CCC(=O)OC2)cc1OCC1CCCCC1", "High Affinity Rolipram Binding Site of PDE4 in Mouse Brain", "<1"),
    ("CCCCCOc1cc([C@@H]2CCC(=O)OC2)ccc1OC", "High Affinity Rolipram Binding Site of PDE4 in Mouse Brain", ">1"),
]

----------
system: tail skin allograft rejection (C57BL/6 donor, BALB/c recipient mice); test: Murine tail skin allograft transplantation model; type: in vivo, mouse; conditions: 10 mg/kg i.p. twice daily; five mice per group
The molecules listed here are annotated with their # grafts surviving beyond 16 days p.t..

# Molecule, # grafts surviving beyond 16 days p.t.
measured = [
    ("COc1ccc([C@H]2CNC(=O)C(Cc3ccc(OCc4ccccc4)c(OC)c3)C2)cc1OC (stereo partly shown)", 0),
    ("COc1ccc(C2CNC(=O)C2)cc1OC1CCCC1 (stereo not shown) [Rolipram, reference compound]", 1),
    ("COc1ccc([C@H]2COC(=O)C(Cc3ccc(OC4CCCC4)c(OC)c3)C2)cc1OC (stereo partly shown)", 3),
    ("COc1ccc([C@@H]2CCC(=O)OC2)cc1OC1CCCC1", 1),
]

----------
system: High Affinity Rolipram Binding Site of PDE4 in Mouse Brain; assay: Displacement of [3H]-rolipram from its high affinity binding site (HARBS); conditions: ratio of IC50 for PDE4 catalytic activity to concentration displacing 50% of rolipram from HARBS
The compounds listed here are annotated with their PDE4:HARBS.
Value Kind: PDE4:HARBS

# Compound, Assayed Target, Value Kind, Endpoint Value
rows = [
    ("COc1cc(CC2C[C@@H](c3ccc(OC)c(OC)c3)CNC2=O)ccc1O (some centres unmarked)", "High Affinity Rolipram Binding Site of PDE4 in Mouse Brain", "PDE4:HARBS", ">1"),
    ("CCCCCCCOc1cc([C@@H]2CCC(=O)OC2)ccc1OC", "High Affinity Rolipram Binding Site of PDE4 in Mouse Brain", "PDE4:HARBS", "<1"),
    ("COc1ccc([C@H]2COC(=O)C(Cc3ccc(O)cc3)C2)cc1OC1CCCC1 (some centres unmarked)", "High Affinity Rolipram Binding Site of PDE4 in Mouse Brain", "PDE4:HARBS", "<1"),
    ("COc1ccc(CC2(Cc3ccc(OC)c(O)c3)C[C@@H](c3ccc(OC)c(OC4CCCC4)c3)COC2=O)cc1O", "High Affinity Rolipram Binding Site of PDE4 in Mouse Brain", "PDE4:HARBS", "<1"),
    ("COc1cc(C[C@@H]2C[C@@H](c3ccc(OC)c(OC)c3)COC2=O)ccc1O", "High Affinity Rolipram Binding Site of PDE4 in Mouse Brain", "PDE4:HARBS", "<1"),
    ("COc1ccc([C@H]2COC(=O)C(Cc3ccc(OCc4ccccc4)c(OC)c3)C2)cc1OC (some centres unmarked)", "High Affinity Rolipram Binding Site of PDE4 in Mouse Brain", "PDE4:HARBS", "<1"),
    ("COc1ccc([C@H]2COC(=O)C(Cc3ccc(N)cc3)C2)cc1OC1CCCC1 (some centres unmarked)", "High Affinity Rolipram Binding Site of PDE4 in Mouse Brain", "PDE4:HARBS", ">1"),
    ("COc1ccc(CC2C[C@@H](c3ccc(OC)c(OC4CCCC4)c3)COC2=O)cc1O (some centres unmarked)", "High Affinity Rolipram Binding Site of PDE4 in Mouse Brain", "PDE4:HARBS", ">1"),
    ("COc1ccc([C@H]2COC(=O)C(Cc3cccc(N)c3)C2)cc1OC1CCCC1 (some centres unmarked)", "High Affinity Rolipram Binding Site of PDE4 in Mouse Brain", "PDE4:HARBS", ">1"),
    ("COc1ccc([C@@H]2CCC(=O)NC2)cc1OC1CCCC1", "High Affinity Rolipram Binding Site of PDE4 in Mouse Brain", "PDE4:HARBS", ">1"),
    ("COc1ccc([C@H]2COC(=O)C(Cc3cccc(O)c3)C2)cc1OC1CCCC1 (some centres unmarked)", "High Affinity Rolipram Binding Site of PDE4 in Mouse Brain", "PDE4:HARBS", "<1"),
    ("COc1ccc([C@@H]2CCC(=O)OC2)cc1OC1CCCC1", "High Affinity Rolipram Binding Site of PDE4 in Mouse Brain", "PDE4:HARBS", ">1"),
    ("COc1ccc([C@H]2COC(=O)C(Cc3ccc(O)c(N)c3)C2)cc1OC1CCCC1 (some centres unmarked)", "High Affinity Rolipram Binding Site of PDE4 in Mouse Brain", "PDE4:HARBS", ">1"),
    ("COc1cc(C[C@H]2C[C@@H](c3ccc(OC)c(OC)c3)COC2=O)ccc1O", "High Affinity Rolipram Binding Site of PDE4 in Mouse Brain", "PDE4:HARBS", "<1"),
    ("COc1ccc([C@@H]2CCC(=O)OC2)cc1OCC1CCC1", "High Affinity Rolipram Binding Site of PDE4 in Mouse Brain", "PDE4:HARBS", ">1"),
    ("COc1ccc([C@H]2COC(=O)C(Cc3ccccc3)C2)cc1OC1CCCC1 (some centres unmarked)", "High Affinity Rolipram Binding Site of PDE4 in Mouse Brain", "PDE4:HARBS", "<1"),
    ("COc1cc(CC2C[C@@H](c3ccc(OC)c(OC4CCCC4)c3)CNC2=O)ccc1OCc1ccccc1 (some centres unmarked)", "High Affinity Rolipram Binding Site of PDE4 in Mouse Brain", "PDE4:HARBS", "<1"),
]
